So I've got a bunch of binders here, and I need their peptide exchange yield values.
# target.entity: T1, HLA-A*02:01 (peptide-receptive MHC class I monomer from UV-ligand exchange) (human)
# T1 construct: Monomers were captured on streptavidin-coated plates
# method.notes: UV-exchange ELISA (anti-b2m); exchange yield grade: + >=10%, ++ >=20%, +++ >=50%, ++++ >=75%

Solved entries (count: 6):
GLHNVVYGI [peptide GLHNVVYGI (SEQ ID NO 187)] | 50 to 75%
ALVQGILERV [peptide ALVQGILERV (SEQ ID NO 12)] | 50 to 75%
RLLHEVQEL [peptide RLLHEVQEL (SEQ ID NO 163)] | 50 to 75%
ILDDHLSRV [peptide ILDDHLSRV (SEQ ID NO 9)] | 20 to 50%
ALLNGEYLLAA [peptide ALLNGEYLLAA (SEQ ID NO 54)] | 50 to 75%
ILYDLQQNL [peptide ILYDLQQNL (SEQ ID NO 113)] | 20 to 50%

Can you give me peptide exchange yield for all of these, one by one?
1. SMVEDITGLRL [peptide SMVEDITGLRL (SEQ ID NO 84)]
2. VLYEGVDEV [peptide VLYEGVDEV (SEQ ID NO 120)]

Resp:
["50 to 75%", "20 to 50%"]
